experiment: Kinetic solubility of compound at pH 7 by HPLC analysis; format: physicochemical; details: buffer, read-out: Kinetic_solubility
parameter measured: solubility kinetic (µM)
Respond numerically; units are µM and should not be typed.

Ask: Report solubility kinetic for CN[C@H](CNc1cc(F)c(S(=O)(=O)Nc2ncc(F)s2)cc1Cl)CC(C)(C)C.Cl please.
Reply: 148

====

assay: Clearance in dog; assay type: ADME, Canis lupus familiaris; details: in vivo
parameter measured: clearance (mL/min/kg)
Number only, in mL/min/kg; omit the unit.

Ask: Query (compound): CN[C@H](CNc1cc(F)c(S(=O)(=O)Nc2ncc(F)s2)cc1Cl)CC(C)(C)C.Cl ; field requested: clearance
Reply: 4.5

====

test: Dissociation constant, pKa of the sulfonamide compound; type: physicochemical
parameter measured: pKa

Ask: Using the record for CN[C@H](CNc1cc(F)c(S(=O)(=O)Nc2ncc(F)s2)cc1Cl)CC(C)(C)C.Cl , report its pKa.
Reply: 5.4

====

molecular target: Nuclear receptor subfamily 1 group I member 2 (Homo sapiens, UniProt O75469); experiment: Activation of PXR (unknown origin)
Sequence (O75469 whole entry): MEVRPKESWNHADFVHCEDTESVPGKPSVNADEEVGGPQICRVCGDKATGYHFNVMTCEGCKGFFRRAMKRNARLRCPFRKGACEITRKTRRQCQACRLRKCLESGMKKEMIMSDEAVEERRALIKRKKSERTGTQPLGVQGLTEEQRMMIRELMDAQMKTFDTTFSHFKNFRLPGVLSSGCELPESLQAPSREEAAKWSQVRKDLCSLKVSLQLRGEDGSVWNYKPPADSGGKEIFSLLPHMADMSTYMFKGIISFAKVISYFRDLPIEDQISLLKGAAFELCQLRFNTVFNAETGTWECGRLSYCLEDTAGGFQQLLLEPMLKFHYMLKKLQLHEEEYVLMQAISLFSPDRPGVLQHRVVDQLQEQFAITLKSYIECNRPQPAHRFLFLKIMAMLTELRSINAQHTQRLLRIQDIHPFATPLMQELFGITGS
parameter measured: pEC50
Scale: negative log10 of molar concentration, which is what pEC50 denotes.

Ask: Requested read-out: pEC50. Entry: CN[C@H](CNc1cc(F)c(S(=O)(=O)Nc2ncc(F)s2)cc1Cl)CC(C)(C)C.Cl
Reply: 5.00

====

experiment: Intrinsic Clearance in dog; format: ADME, Canis lupus familiaris
parameter measured: CLint scaled (mL/min/kg)
Give just the numeric value; mL/min/kg need not be written.

Ask: // returns reported CLint scaled for input CN[C@H](CNc1cc(F)c(S(=O)(=O)Nc2ncc(F)s2)cc1Cl)CC(C)(C)C.Cl
Reply: 200

====

target: PXR (Homo sapiens, UniProt O75469); assay: Activation of PXR (unknown origin) relative to control; type: ADME
Sequence (O75469 whole entry): as the sequence (O75469 whole entry) above
parameter measured: Emax (%)
Just the number in %, nothing appended.

Ask: Reported Emax for CN[C@H](CNc1cc(F)c(S(=O)(=O)Nc2ncc(F)s2)cc1Cl)CC(C)(C)C.Cl : what is it?
Reply: 80

====

experiment: Volume of distribution at steady state in rat; type: ADME; conditions: in vivo, read-out: Vdss
parameter measured: Vd (L/kg)
Number only, in L/kg; omit the unit.

Ask: Recorded Vd for CN[C@H](CNc1cc(F)c(S(=O)(=O)Nc2ncc(F)s2)cc1Cl)CC(C)(C)C.Cl , please?
Reply: 2.1

====

target: Nav1.5 (Homo sapiens, UniProt Q14524); assay: Inhibition of human Nav1.5 alpha expressed in HEK293 cells expressed in HEK293 cells incubated for 5 mins with 6 consecutive train pulses to -10 mV at 0.1 Hz and holding potential of -65 mV by Qube-automated patch clamp assay; assay type: ADME, cell-based; details: HEK293 cells expressing human Nav1.5 alpha
parameter measured: IC90 at 5 min (µM)
Your answer should be a plain number; it is taken to be in µM.

Ask: What measured IC90 at 5 min goes with CN[C@H](CNc1cc(F)c(S(=O)(=O)Nc2ncc(F)s2)cc1Cl)CC(C)(C)C.Cl ?
Reply: 3.6

====

assay: Oral bioavailability in rat; assay type: ADME, organism-based; conditions: in vivo
parameter measured: bioavailability (%)
Form entry: value (%) — number only.

Ask: I have this molecule here, CN[C@H](CNc1cc(F)c(S(=O)(=O)Nc2ncc(F)s2)cc1Cl)CC(C)(C)C.Cl , and I need its recorded bioavailability.
Reply: 100

====

assay: Dissociation constant, pKa of the amine compound; format: physicochemical
parameter measured: pKa

Ask: What value of pKa has been recorded for this entry: CN[C@H](CNc1cc(F)c(S(=O)(=O)Nc2ncc(F)s2)cc1Cl)CC(C)(C)C.Cl
Reply: 9

====

test: Intrinsic clearance in rat at 0.05 mg/kg, iv administered as cassette dose or 2 mg/kg, iv administered as single dose; settings: in vivo
CL values, listed per item
Entry rule: numbers only, all in mL/min/kg.

Before answering, review these 4 worked examples.
# compound, CL, mL/min/kg
rows = [
    ("CN[C@H](CNc1cc(F)c(S(=O)(=O)Nc2ncc(F)s2)cc1Cl)CC(C)(C)C.Cl", 1670),
    ("CN[C@H](CNc1cc(F)c(S(=O)(=O)Nc2nccs2)cc1Cl)Cc1ccccc1", 4820),
    ("CN[C@H](CNc1cc(F)c(S(=O)(=O)Nc2ncc(F)s2)cc1Cl)CC1CCC1", 8090),
    ("O=S(=O)(Nc1nccs1)c1cc(Cl)c(NCC2(Cc3ccccc3)CCCN2)cc1F (centres undefined)", 5830),
]

Alright, here's another compound for you.
Ask: Fill in: CL of CN[C@H](CNc1cc(F)c(S(=O)(=O)Nc2ncc(F)s2)cc1Cl)CC12CC(C1)C2 is ___
Reply: 2300

====

test: Inhibition of rhesus monkey Nav1.7 alpha expressed in HEK293 cells; format: cell-based, Macaca mulatta
parameter measured: pIC50
Friendly reminder that pIC50 comes from taking -log10 of the concentration in mol/L.

Ask: Recorded pIC50 of CN[C@H](CNc1cc(F)c(S(=O)(=O)Nc2ncc(F)s2)cc1Cl)CC(C)(C)C.Cl , please.
Reply: 6.51

====

experiment: Volume of distribution at steady state in dog; type: ADME, Canis lupus familiaris; settings: in vivo, read-out: Vdss
parameter measured: Vd (L/kg)
Supply the numeric figure in L/kg, leaving out any unit text.

Ask: Using the record for CN[C@H](CNc1cc(F)c(S(=O)(=O)Nc2ncc(F)s2)cc1Cl)CC(C)(C)C.Cl , report its Vd.
Reply: 0.8

====

target: Sodium channel protein type 8 subunit alpha (Homo sapiens, UniProt Q9UQD0); test: Inhibition of human Nav1.6 alpha expressed in HEK293 cells incubated for 5 mins with 6 consecutive train pulses to -10 mV at 0.1 Hz and holding potential of -65 mV by Qube-automated patch clamp assay; type: ADME, cell-based
Sequence (Q9UQD0 whole entry): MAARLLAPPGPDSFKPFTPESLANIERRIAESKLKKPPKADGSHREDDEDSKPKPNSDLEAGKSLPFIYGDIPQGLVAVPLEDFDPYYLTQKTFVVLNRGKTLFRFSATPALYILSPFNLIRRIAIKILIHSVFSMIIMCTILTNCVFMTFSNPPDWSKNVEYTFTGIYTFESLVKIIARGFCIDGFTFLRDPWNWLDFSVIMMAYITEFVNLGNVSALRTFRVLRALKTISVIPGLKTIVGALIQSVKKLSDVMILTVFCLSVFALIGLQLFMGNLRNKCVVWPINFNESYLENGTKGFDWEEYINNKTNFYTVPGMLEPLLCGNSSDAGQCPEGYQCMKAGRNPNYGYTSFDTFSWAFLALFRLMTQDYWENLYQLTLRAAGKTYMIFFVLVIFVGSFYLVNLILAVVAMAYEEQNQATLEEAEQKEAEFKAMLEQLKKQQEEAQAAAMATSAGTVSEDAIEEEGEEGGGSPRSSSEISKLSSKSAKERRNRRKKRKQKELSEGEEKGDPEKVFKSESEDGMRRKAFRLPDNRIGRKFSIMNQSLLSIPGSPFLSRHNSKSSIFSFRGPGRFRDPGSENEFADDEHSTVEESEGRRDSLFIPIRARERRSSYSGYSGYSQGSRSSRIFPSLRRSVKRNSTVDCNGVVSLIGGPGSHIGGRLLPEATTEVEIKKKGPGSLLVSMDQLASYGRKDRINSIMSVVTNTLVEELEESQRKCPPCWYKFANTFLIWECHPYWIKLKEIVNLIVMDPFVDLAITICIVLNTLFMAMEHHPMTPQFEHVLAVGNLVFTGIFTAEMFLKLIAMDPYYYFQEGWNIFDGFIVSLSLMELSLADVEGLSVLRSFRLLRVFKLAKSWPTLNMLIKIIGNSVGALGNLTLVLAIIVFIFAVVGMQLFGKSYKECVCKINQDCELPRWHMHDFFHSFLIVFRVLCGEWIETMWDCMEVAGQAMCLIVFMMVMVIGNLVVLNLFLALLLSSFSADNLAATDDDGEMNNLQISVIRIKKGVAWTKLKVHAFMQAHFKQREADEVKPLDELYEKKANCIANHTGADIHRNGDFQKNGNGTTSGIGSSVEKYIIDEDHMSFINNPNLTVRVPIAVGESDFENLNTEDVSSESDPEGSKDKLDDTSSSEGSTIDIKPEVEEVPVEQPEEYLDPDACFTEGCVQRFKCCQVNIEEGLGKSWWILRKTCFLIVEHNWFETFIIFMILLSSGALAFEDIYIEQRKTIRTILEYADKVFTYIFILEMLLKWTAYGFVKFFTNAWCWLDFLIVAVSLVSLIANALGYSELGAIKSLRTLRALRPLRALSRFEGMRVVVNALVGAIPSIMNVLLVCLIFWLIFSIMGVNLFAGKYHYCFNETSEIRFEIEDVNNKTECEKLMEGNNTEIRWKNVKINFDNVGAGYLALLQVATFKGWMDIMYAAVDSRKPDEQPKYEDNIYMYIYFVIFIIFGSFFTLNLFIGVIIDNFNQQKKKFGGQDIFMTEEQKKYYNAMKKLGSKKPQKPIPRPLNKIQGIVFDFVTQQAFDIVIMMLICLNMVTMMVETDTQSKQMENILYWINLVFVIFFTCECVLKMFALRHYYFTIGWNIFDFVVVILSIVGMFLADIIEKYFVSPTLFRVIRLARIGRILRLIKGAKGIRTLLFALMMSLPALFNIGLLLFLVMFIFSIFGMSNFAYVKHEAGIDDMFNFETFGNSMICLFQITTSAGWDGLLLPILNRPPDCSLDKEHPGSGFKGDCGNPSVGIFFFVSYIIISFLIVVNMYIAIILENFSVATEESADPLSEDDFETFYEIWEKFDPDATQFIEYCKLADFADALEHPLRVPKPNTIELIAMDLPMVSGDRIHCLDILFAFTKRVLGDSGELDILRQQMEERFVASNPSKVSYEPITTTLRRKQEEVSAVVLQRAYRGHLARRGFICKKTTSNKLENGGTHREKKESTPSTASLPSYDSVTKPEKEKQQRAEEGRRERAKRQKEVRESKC
pIC50: −log10 of the molar value.
Attribute: pIC50

# count of solved cases: 8
# compound, parameter measured, reading
data = [
    ("CN[C@H](CNc1cc(F)c(S(=O)(=O)Nc2ncc(F)s2)cc1Cl)CC1CC1", "pIC50", "< 4.47"),
    ("CN[C@H](CNc1cc(F)c(S(=O)(=O)Nc2ncc(F)s2)cc1Cl)Cc1ccccc1", "pIC50", "< 4.47"),
    ("CN(C)[C@H](CNc1cc(F)c(S(=O)(=O)Nc2nccs2)cc1Cl)Cc1ccccc1", "pIC50", "< 4.47"),
    ("CNC(C)(CNc1cc(F)c(S(=O)(=O)Nc2nccs2)cc1Cl)Cc1ccccc1 (stereo in doubt; 9)", "pIC50", "< 4.47"),
    ("O=S(=O)(Nc1nccs1)c1cc(Cl)c(NCC2(Cc3ccccc3)CCCN2)cc1F (centres undefined)", "pIC50", 6.38),
    ("CN[C@H](CNc1cc(F)c(S(=O)(=O)Nc2ncc(F)s2)cc1Cl)CC1CCC1", "pIC50", "< 4.47"),
    ("CN[C@H](CNc1cc(F)c(S(=O)(=O)Nc2ncns2)cc1Cl)Cc1ccccc1", "pIC50", "< 4.47"),
    ("CN[C@H](CNc1cc(F)c(S(=O)(=O)Nc2ncc(F)s2)cc1Cl)CC(C)(C)C.Cl", "pIC50", 4.73),
]

Ask: pIC50 lookup needed for CC1(CNc2cc(F)c(S(=O)(=O)Nc3nccs3)cc2Cl)CCCN1 (stereo in doubt; 5) , thanks.
Reply: 6.07

====

target: Sodium channel protein type 9 subunit alpha (Homo sapiens); assay: Inhibition of human Nav1.7 alpha expressed in HEK293 cells incubated for 5 mins with 6 consecutive train pulses to -10 mV at 0.1 Hz and holding potential of -65 mV by Qube-automated patch clamp assay; assay type: cell-based
Sequence (Q15858 whole entry): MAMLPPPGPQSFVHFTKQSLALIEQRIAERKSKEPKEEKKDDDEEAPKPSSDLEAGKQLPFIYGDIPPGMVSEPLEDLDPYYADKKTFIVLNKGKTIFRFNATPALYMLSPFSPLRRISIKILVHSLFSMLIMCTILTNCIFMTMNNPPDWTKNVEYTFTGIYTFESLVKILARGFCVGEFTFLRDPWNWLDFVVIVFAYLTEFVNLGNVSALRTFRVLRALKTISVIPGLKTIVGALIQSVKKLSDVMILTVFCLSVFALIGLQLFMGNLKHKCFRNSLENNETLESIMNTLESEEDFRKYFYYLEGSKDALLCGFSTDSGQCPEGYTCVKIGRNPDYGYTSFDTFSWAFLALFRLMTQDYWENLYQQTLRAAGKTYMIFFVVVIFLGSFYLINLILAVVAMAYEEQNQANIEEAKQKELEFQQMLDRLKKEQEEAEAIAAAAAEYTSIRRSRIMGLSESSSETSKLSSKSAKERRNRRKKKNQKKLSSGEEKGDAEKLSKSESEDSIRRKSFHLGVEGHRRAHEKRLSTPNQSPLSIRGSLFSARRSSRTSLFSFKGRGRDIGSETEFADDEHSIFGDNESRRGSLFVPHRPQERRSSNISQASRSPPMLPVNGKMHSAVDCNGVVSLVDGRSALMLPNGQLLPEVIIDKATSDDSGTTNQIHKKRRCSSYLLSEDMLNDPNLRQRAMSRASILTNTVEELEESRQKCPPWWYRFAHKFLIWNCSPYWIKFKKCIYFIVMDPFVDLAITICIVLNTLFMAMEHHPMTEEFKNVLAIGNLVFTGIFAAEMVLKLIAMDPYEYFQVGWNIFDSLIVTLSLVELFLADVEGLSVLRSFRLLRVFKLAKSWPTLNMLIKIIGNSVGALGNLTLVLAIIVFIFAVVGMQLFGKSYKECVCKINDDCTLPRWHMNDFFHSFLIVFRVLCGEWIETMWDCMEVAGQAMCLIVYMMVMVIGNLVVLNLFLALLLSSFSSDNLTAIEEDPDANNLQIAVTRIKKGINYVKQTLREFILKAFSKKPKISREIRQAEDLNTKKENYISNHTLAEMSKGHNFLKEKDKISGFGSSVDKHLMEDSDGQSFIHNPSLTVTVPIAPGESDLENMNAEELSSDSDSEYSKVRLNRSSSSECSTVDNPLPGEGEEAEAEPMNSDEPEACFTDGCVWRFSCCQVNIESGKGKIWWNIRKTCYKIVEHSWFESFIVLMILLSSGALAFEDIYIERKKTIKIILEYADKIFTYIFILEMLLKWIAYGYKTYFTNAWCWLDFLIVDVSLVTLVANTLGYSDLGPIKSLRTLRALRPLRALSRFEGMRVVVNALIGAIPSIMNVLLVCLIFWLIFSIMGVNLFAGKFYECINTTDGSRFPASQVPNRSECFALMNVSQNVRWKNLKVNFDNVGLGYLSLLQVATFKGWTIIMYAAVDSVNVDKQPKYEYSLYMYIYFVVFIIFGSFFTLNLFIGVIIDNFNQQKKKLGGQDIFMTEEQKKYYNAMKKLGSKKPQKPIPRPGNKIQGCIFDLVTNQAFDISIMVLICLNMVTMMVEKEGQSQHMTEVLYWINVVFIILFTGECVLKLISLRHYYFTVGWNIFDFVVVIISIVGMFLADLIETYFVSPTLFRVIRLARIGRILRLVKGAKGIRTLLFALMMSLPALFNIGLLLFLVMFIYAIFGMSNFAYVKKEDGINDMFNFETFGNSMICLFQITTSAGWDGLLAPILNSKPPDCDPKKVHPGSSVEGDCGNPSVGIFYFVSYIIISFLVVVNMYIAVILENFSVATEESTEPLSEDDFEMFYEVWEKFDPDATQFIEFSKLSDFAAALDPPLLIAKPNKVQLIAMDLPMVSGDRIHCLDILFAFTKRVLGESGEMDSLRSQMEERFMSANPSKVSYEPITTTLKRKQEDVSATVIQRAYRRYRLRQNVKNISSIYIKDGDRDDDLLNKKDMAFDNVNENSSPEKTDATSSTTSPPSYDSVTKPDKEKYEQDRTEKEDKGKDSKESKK
parameter measured: pIC50
Scale explanation: pIC50 corresponds to minus log10 of a concentration expressed in moles per litre.

# compound, parameter measured, reading
data = [
    ("O=S(=O)(Nc1nccs1)c1cc(Cl)c(NCC2(Cc3ccccc3)CCCN2)cc1F (stereo not drawn)", "pIC50", 7.60),
    ("CN[C@H](CNc1cc(F)c(S(=O)(=O)Nc2ncc(F)s2)cc1Cl)CC12CC(C1)C2", "pIC50", 6.92),
    ("CN[C@H](CNc1cc(F)c(S(=O)(=O)Nc2ncc(F)s2)cc1Cl)Cc1ccccc1", "pIC50", 6.40),
    ("CN[C@H](CNc1cc(F)c(S(=O)(=O)Nc2ncc(F)s2)cc1Cl)CC1(C)CC1", "pIC50", 6.14),
    ("CN[C@H](CNc1cc(F)c(S(=O)(=O)Nc2nccs2)cc1Cl)Cc1ccccc1", "pIC50", 6.62),
]

Ask: // lookup pIC50 for CN[C@H](CNc1cc(F)c(S(=O)(=O)Nc2ncc(F)s2)cc1Cl)CC(C)(C)C.Cl
Reply: 6.52

====

experiment: Half life in rat; assay type: ADME; settings: in vivo
parameter measured: half-life (h)
Field format: number, assumed h, no unit text.

Ask: What value of half-life has been reported for the following molecule? CN[C@H](CNc1cc(F)c(S(=O)(=O)Nc2ncc(F)s2)cc1Cl)CC(C)(C)C.Cl
Reply: 2.5
